Source: PubChem BioAssay (EPA / NIEHS)

experiment: ATG_PXRE_CIS: Attagene CIS-FACTORIAL HepG2 Assay for human Pregnane X Receptor Element (PXRE) (AID 2282957); details: HepG2 Attagene CIS-FACTORIAL PXRE reporter, mRNA; actives raise or lower the signal
Calls of active or inactive are those of the source. The calls were made as follows: active = hit-call score of the fitted dose curve at least 0.9, where 1 is the maximum; inactive = score below 0.9.
Pick from YES (active), NO (inactive) when you respond.

Some entries whose results are on file:
[
  {
    "MOLECULE": "CC/C=C\\C/C=C\\C/C=C\\CCCCCCCC(=O)OC",
    "ANSWER LABEL": "YES"
  },
  {
    "MOLECULE": "Cc1c(O)cccc1O",
    "ANSWER LABEL": "YES"
  },
  {
    "MOLECULE": "Clc1cccnc1",
    "ANSWER LABEL": "YES"
  },
  {
    "MOLECULE": "CCN(CC)c1cccc(C)c1",
    "ANSWER LABEL": "YES"
  }
]

[Q] Each molecule tested received a call. Report the one for `CCCCCCCCCCCCCCCCCCOS(=O)(=O)O` .
[A] NO

[Q] Would you mind telling me which call this test gave `C=CC(=O)NCOCCCC` ?
[A] YES

[Q] What did this assay record as the result for `Cn1ccnc1` ?
[A] NO

[Q] Name the outcome recorded for `O=C(O)CCCC(=O)O` in the assay.
[A] NO

[Q] Please indicate how the test categorized `CCCCCCOC(=O)CCCCC(=O)OCCCCCC` .
[A] YES

[Q] What was the test verdict on CCCCOCC(C)O (stereo unspecified) ?
[A] NO

[Q] Please state the recorded outcome for this molecule: CCC1COC(=O)O1 (stereo unspecified)
[A] YES

[Q] Just curious, what result did `COc1ccc(C(=O)c2ccccc2)c(O)c1` get here?
[A] YES

[Q] Assay result, entry `Cc1ccc([N+](=O)[O-])cc1N` — outcome?
[A] YES

[Q] Assay outcome for `CCCCNS(=O)(=O)c1ccc(C)cc1` : what was it?
[A] YES

[Q] // return assay outcome for CCC(C)c1ccccc1 (stereo unspecified)
[A] NO

[Q] Status in this test for `CC(C)c1ccc2ncccc2c1` ?
[A] YES
